- Target system: GST-RIPK1 (recombinant GST-RIPK1 kinase domain (residues 1-327)) (Homo sapiens (Human), UniProt Q13546)
- Sequence (Q13546 1-327): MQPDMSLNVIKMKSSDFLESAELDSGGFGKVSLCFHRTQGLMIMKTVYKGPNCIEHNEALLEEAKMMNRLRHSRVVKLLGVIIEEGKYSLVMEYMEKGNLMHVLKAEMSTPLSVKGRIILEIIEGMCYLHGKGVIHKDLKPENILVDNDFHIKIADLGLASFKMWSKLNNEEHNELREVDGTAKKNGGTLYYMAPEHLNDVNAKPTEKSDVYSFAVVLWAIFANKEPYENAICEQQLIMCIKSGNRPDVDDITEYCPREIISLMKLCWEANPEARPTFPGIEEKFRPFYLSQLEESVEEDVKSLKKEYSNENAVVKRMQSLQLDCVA
- Measurement description: RIPK1-ADP-Glo Enzymatic Assay
- Protocol conditions: 25 nM GST-RIPK1, 300 μM ATP, 3 μM dephosphorylated-MBP, 30 min pre-incubation, 150 min reaction
Give measured EC50 for each item. Keep answers brief.

Sample answers from the record:
molecule="COc1cc(F)cc(C2CCc3nn(C45CC(F)(C4)C5)c(=O)n32)c1 (racemic)" outcome_measure=EC50 observed="259 nM"
molecule=N#CC12CC(n3nc4n(c3=O)[C@H](c3cccc(Cl)c3)CC4)(C1)C2 outcome_measure=EC50 observed="98.6 nM"
molecule=O=c1n(C23CC(Cl)(C2)C3)nc2n1[C@H](c1cncc(F)c1)CC2 outcome_measure=EC50 observed="111 nM"
molecule=N#CC12CC(n3nc4n(c3=O)[C@H](c3ccc(C(F)(F)F)cc3)CC4)(C1)C2 outcome_measure=EC50 observed="250 nM"
molecule=Cc1cnc([C@@H]2CCc3nn(C45CC(F)(C4)C5)c(=O)n32)cn1 outcome_measure=EC50 observed="198 nM"

Hi team, please reply with EC50 for each item in this list.
1. N#CC12CCC(n3nc4n(c3=O)[C@H](c3ccccc3)CC4)(C1)C2
2. O=c1n(C23CC(C(F)F)(C2)C3)nc2n1[C@H](c1cc(F)cc(F)c1)CC2
3. N#CC12CC(n3nc4n(c3=O)[C@H](c3ccc(F)c(F)c3)CC4)(C1)C2

Completion:
47 nM
25.9 nM
67.7 nM

====

- Target system: GST-RIPK1 (recombinant GST-RIPK1 kinase domain (residues 1-327)) (Homo sapiens (Human), UniProt Q13546)
- Measurement description: RIPK1-ADP-Glo Enzymatic Assay
- Protocol conditions: 25 nM GST-RIPK1, 300 μM ATP, 3 μM dephosphorylated-MBP, 30 min pre-incubation, 150 min reaction
pEC50: −log10 of the molar value.
Decision: pEC50 compared against 7; not below it gives criterion met, below it gives criterion not met.

Prompt: // inclusive: pEC50 at least 7? input: N#CC12CC(n3nc4n(c3=O)[C@H](c3cccc(F)c3)CC4)(C1)C2
Completion: criterion met

====

- Target system: GST-RIPK1 (recombinant GST-RIPK1 kinase domain (residues 1-327)) (Homo sapiens (Human), UniProt Q13546)
- Measurement description: RIPK1-ADP-Glo Enzymatic Assay
- Protocol conditions: 25 nM GST-RIPK1, 300 μM ATP, 3 μM dephosphorylated-MBP, 30 min pre-incubation, 150 min reaction
Outcome measure: pEC50
Numbers only, as −log10 of the molar value.

compound="O=c1n(C23CC(C2)C3)nc2n1[C@H](c1cc(F)cc(F)c1)CC2 [Compound 1-7]" observed=7.01

Hi team, please reply with pEC50 for each item in this list.
1. O=c1n(C23CC(Cl)(C2)C3)nc2n1[C@H](c1cccc(F)c1)CC2 [Compound 1-42]
2. O=c1n(C23CC(Cl)(C2)C3)nc2n1[C@H](c1cc(F)cc(F)c1)CC2 [Compound 1-8]

Completion:
[7.73, 7.66]

According to the records, this compound N#Cc1ccc([C@@H]2CCc3nn(C45CC(F)(C4)C5)c(=O)n32)cc1 [Compound 1-67] displays pEC50 of 6.55

====

- Target system: GST-RIPK1 (recombinant GST-RIPK1 kinase domain (residues 1-327)) (Homo sapiens (Human))
- Measurement description: RIPK1-ADP-Glo Enzymatic Assay
- Protocol conditions: 25 nM GST-RIPK1, 300 μM ATP, 3 μM dephosphorylated-MBP, 30 min pre-incubation, 150 min reaction
Give measured pEC50 for each item. Keep answers brief.
Answers are plain numbers, as −log10 of the molar value.

molecule="N#Cc1cccc(C2CCc3nn(C45CC(F)(C4)C5)c(=O)n32)c1 (racemic)" outcome_measure=pEC50 observed=6.37

Hi team, please reply with pEC50 for each item in this list.
1. N#CC12CCC(n3nc4n(c3=O)[C@H](c3cc(F)cc(F)c3)CC4)(C1)C2
2. N#CC12CCC(n3nc4n(c3=O)[C@H](c3ccccc3)CC4)(CC1)C2
3. O=c1n(C23CC(F)(C2)C3)nc2n1[C@H](c1cc(F)cc(F)c1)CC2
4. O=c1n(C23CC(C(F)F)(C2)C3)nc2n1[C@H](c1cccc(F)c1)CC2
5. O=c1n(C23CC(F)(C2)C3)nc2n1[C@H](c1ccc(Cl)cc1)CC2
6. N#CC12CC(n3nc4n(c3=O)[C@H](c3ccccc3F)CC4F)(C1)C2 (single isomer, unassigned) [Compound 6-9]
7. Cc1c(F)cc([C@@H]2CCc3nn(C45CC(C#N)(C4)C5)c(=O)n32)cc1F

Completion:
7.30
7.06
7.64
7.52
7.42
7.16
7.79

====

Give measured EC50 for each item. Keep answers brief.
- Target system: GST-RIPK1 (recombinant GST-RIPK1 kinase domain (residues 1-327)) (Homo sapiens (Human))
- Measurement description: RIPK1-ADP-Glo Enzymatic Assay
- Protocol conditions: 25 nM GST-RIPK1, 300 μM ATP, 3 μM dephosphorylated-MBP, 30 min pre-incubation, 150 min reaction
Give bare numbers, in nM.

Hi team, please reply with EC50 for each item in this list.
1. CC(F)(F)C12CC(n3nc4n(c3=O)[C@H](c3ccccc3)CC4)(C1)C2
2. O=c1n(C23CC(c4ccccc4)(C2)C3)nc2n1[C@H](c1cncc(F)c1)CC2
3. O=c1n(C23CC(F)(C2)C3)nc2n1[C@H](c1cnccn1)CC2
4. O=c1n(C23CC(F)(C2)C3)nc2n1[C@H](c1ccccc1)CC2

Completion:
[36.4, 514, 84, 51.2]

====

Give measured pEC50 for each item. Keep answers brief.
- Target system: GST-RIPK1 (recombinant GST-RIPK1 kinase domain (residues 1-327)) (Homo sapiens (Human))
- Measurement description: RIPK1-ADP-Glo Enzymatic Assay
- Protocol conditions: 25 nM GST-RIPK1, 300 μM ATP, 3 μM dephosphorylated-MBP, 30 min pre-incubation, 150 min reaction
Numbers only, as −log10 of the molar value.

Sample answers from the record:
molecule=O=c1n(C23CC(F)(C2)C3)nc2n1[C@H](c1ccccc1)CCC2 observed=7.13
molecule=N#CC12CC(n3nc4n(c3=O)[C@H](c3ccc(F)cc3F)CC4)(C1)C2 observed=7.06
molecule="N#CC12CC(n3nc4n(c3=O)C(C3CCCC3)CC4)(C1)C2 (single isomer, unassigned)" observed=6.47
molecule=Cc1c(F)cc([C@@H]2CCc3nn(C45CC(F)(C4)C5)c(=O)n32)cc1Cl observed=7.67
molecule=C[C@H]1C[C@@H](c2cc(F)cc(F)c2)n2c1nn(C13CC(C#N)(C1)C3)c2=O observed=7.16

Hi team, please reply with pEC50 for each item in this list.
1. O=c1n(C23CC(F)(C2)C3)nc2n1[C@H](c1ccccc1)CC2F (single isomer, unassigned) [Compound 6-3]
2. N#CC12CC(n3nc4n(c3=O)[C@H](c3cncc(Cl)c3)CC4)(C1)C2
3. COC(=O)C12CC(n3nc4n(c3=O)[C@H](c3cc(F)cc(F)c3)CC4)(C1)C2

Completion:
1. 6.80
2. 6.31
3. 6.94

Hi team, please reply with pEC50 for each item in this list.
1. N#CC12CCC(n3nc4n(c3=O)[C@H](c3cnccn3)CC4)(C1)C2
2. N#CC12CC(n3nc4n(c3=O)[C@H](c3ccc(C(F)F)cc3)CC4)(C1)C2
3. N#CC12CC(n3nc4n(c3=O)[C@H](c3cc(F)cc(F)c3)CC4)(C1)C2(F)F
4. N#CC12CC(n3nc4n(c3=O)[C@H](c3cc(F)cc(F)c3)COC4)(C1)C2
5. O=c1n(C23CCC(CC2)CC3)nc2n1[C@H](c1cc(F)cc(F)c1)CC2
6. O=c1n(C23CC(Cl)(C2)C3)nc2n1[C@H](c1ccccc1)CC2

Completion:
1. 6.29
2. 7.04
3. 7.70
4. 6.97
5. 6.16
6. 7.48

Hi team, please reply with pEC50 for each item in this list.
1. N#CC12CC(n3nc4n(c3=O)[C@H](c3ccccc3)CC4)(C1)C2(F)F
2. O=c1n(C23CC(F)(C2)C3)nc2n1[C@H](c1cc(F)c(Cl)c(F)c1)CC2
3. O=c1n(C23CC(F)(C2)C3)nc2n1[C@H](c1cccc(F)c1)CC2

Completion:
[7.35, 7.78, 7.64]

====

- Target system: GST-RIPK1 (recombinant GST-RIPK1 kinase domain (residues 1-327)) (Homo sapiens (Human), UniProt Q13546)
- Measurement description: RIPK1-ADP-Glo Enzymatic Assay
- Protocol conditions: 25 nM GST-RIPK1, 300 μM ATP, 3 μM dephosphorylated-MBP, 30 min pre-incubation, 150 min reaction
pEC50: −log10 of the molar value.
Decision: pEC50 compared against 7; not below it gives 1 (yes), below it gives 0 (no).

Please review the following examples before continuing.
compound=O=c1n(C23CC(F)(C2)C3)nc2n1[C@H](c1cc(F)cc(F)c1)CCC2 category="1 (yes)"
compound="N#CC12CC(n3nc4n(c3=O)C(c3cnccn3)CC4)(C1)C2 (racemic)" category="0 (no)"
compound=O=c1n(C23CCC(C2)C3)nc2n1[C@H](c1cnccn1)CC2 category="0 (no)"
compound=O=c1n(C23CC(F)(C2)C3)nc2n1[C@H](c1cnc(C(F)(F)F)cn1)CC2 category="0 (no)"

Prompt: // inclusive: pEC50 at least 7? input: O=c1n(C23CCC(CC2)C3)nc2n1[C@H](c1ccccc1)CC2
Completion: 1 (yes)

Prompt: // inclusive: pEC50 at least 7? input: Cc1ccccc1[C@@H]1CCc2nn(C34CC(F)(C3)C4)c(=O)n21
Completion: 0 (no)
